molecular target: B. anthracis wild-type topoisomerase IV (Bacillus anthracis)
Assay Metric: IC50

Checklist item: IC50 tested on B. anthracis wild-type topoisomerase IV (Bacillus anthracis), entry CC[C@H](C)n1cc(C)c2c(C(=O)NCc3c(C)cc(C)[nH]c3=O)cc(-c3ccc(N4CCNCC4)nc3)cc21 , value?
~2300 nM

* * *

biological target: B. anthracis wild-type topoisomerase IV (Bacillus anthracis, UniProt A0A6H3AG07); conditions: read-out: EC50, enhancement of single-stranded DNA cleavage
Assay Metric: EC50

Which EC50 value belongs to CC[C@H](C)n1cc(C)c2c(C(=O)NCc3c(C)cc(C)[nH]c3=O)cc(-c3ccc(N4CCNCC4)nc3)cc21 [GSK126] ?
< 0.5 µM
